Molecular target: AURKA (Homo sapiens)
Construct: endogenous in cells; host or cells: Jurkat cells
Sequence (O14965 whole entry): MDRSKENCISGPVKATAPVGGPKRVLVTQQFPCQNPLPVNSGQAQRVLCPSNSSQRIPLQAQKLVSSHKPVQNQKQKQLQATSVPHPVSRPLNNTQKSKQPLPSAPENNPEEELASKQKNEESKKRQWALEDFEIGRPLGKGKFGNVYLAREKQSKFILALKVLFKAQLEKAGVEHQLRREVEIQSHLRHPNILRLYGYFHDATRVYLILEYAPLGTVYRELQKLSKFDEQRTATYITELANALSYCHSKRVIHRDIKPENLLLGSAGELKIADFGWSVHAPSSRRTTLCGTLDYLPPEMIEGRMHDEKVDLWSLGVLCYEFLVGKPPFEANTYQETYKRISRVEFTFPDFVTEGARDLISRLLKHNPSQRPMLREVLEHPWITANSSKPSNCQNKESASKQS
Type: cell-based
Details: 1 µM compound, Jurkat cells, 24 h, Table 2
ENDPOINT NAME: Percentage of AURKA Degradation Induced by 1 µM Compound in Jurkat Cells

{"SMILES ENTRY": "O=C1CCN(c2ccc(N3CC4COCC(C3)N4CC3CCN(c4ccc(Nc5ncc6c(n5)-c5ccc(Cl)cc5C(c5c(F)cccc5F)=NC6)cc4)CC3)nc2)C(=O)N1", "RESULT": "+++ (Degradation > 70%)"}
{"SMILES ENTRY": "Cc1ccc2c(c1)C(c1c(F)cccc1F)=NCc1cnc(Nc3ccc(C(=O)NC4CC5(CCN(c6ccc(N7CCC(=O)NC7=O)cn6)CC5)C4)cc3)nc1-2", "RESULT": "+++ (Degradation > 70%)"}
{"SMILES ENTRY": "O=C1CCN(c2cccc(N3CC(CN4CCOc5ccc(Nc6ncc7c(n6)-c6ccc(Cl)cc6C(c6c(F)cccc6F)=NC7)cc5C4)C3)c2)C(=O)N1", "RESULT": "+++ (Degradation > 70%)"}
